Reported concentration at 1 h values are given for each entry in this list.
# method: Drug level in mouse brain at 5 mg/kg, iv after 1 hr
# Format: ADME, organism-based
# Parameters: dose 5 mg/kg, route intravenous
# testContext: read-out: Drug uptake
Mention the unit after the number when you answer.

- CC(C)[C@H](NC(=O)CCN(C)C)c1cc(Cl)ccc1N1CCN(C(=O)[C@H](C)Cc2ccc(Cl)cc2)CC1: 580 ng/g
- CNCC(=O)N[C@H](c1cccc(F)c1N1CCN(C(=O)[C@H](C)Cc2ccc(Cl)cc2)CC1)C(C)C: 231 ng/g
- CC(C)[C@H](NC(=O)CCN(C)C)c1cccc(F)c1N1CCN(C(=O)[C@H](C)Cc2ccc(Cl)cc2)CC1: 322 ng/g

If you can, please state the reported concentration at 1 h value of CC(C)[C@H](NC(=O)C1CN(C)C1)c1cc(Cl)ccc1N1CCN(C(=O)[C@H](C)Cc2ccc(Cl)cc2)CC1 .
79 ng/g

----------
# method: Oral bioavailability in mouse at 10 mg/kg
# Format: ADME, organism-based
# testContext: in vivo
Recorded bioavailability determines the label; the label ranges are low (below 10%), mid (10% to below 20%), high (20% or more)

# example entries with known answers
- CC(C)[C@H](NC(=O)C1CN(C)C1)c1cc(Cl)ccc1N1CCN(C(=O)[C@H](C)Cc2ccc(Cl)cc2)CC1: high
- CNCC(=O)N[C@H](c1cccc(F)c1N1CCN(C(=O)[C@H](C)Cc2ccc(Cl)cc2OC)CC1)C(C)C: mid

Where would CC(C)[C@H](NC(=O)CCN(C)C)c1cccc(F)c1N1CCN(C(=O)[C@H](C)Cc2ccc(Cl)cc2)CC1 land among the classes by reported bioavailability?
high

Where would CC(C)[C@H](NC(=O)CCN(C)C)c1cc(Cl)ccc1N1CCN(C(=O)[C@H](C)Cc2ccc(Cl)cc2)CC1 land among the classes by reported bioavailability?
mid

----------
# method: Drug level in LLC tumor bearing C57BL/6J mouse plasma at 20 mg/kg, po twice daily after 2 hrs on day 4 of administration
# Assay type: ADME, organism-based
# Parameters: dose 20 mg/kg, route oral
observable: concentration at 2 h (ng/mL)
# unit: ng/mL | format: bare number

If you can, please state the reported concentration at 2 h value of Cc1ccc(N2CCN(C(=O)[C@H](C)Cc3ccc(Cl)cc3)CC2)c([C@@H](NC(=O)CCN(C)C)C(C)C)c1 .
460

----------
# method: Tmax in rat at 5 mg/kg, iv and 10 mg/kg, po
# Format: ADME, organism-based
# testContext: in vivo
observable: Tmax
Mention the unit after the number when you answer.

If you can, please state the reported Tmax value of CC(C)[C@H](NC(=O)CCN(C)C)c1cccc(F)c1N1CCN(C(=O)[C@H](C)Cc2ccc(Cl)cc2)CC1 .
6 h

----------
# method: AUC in mouse at 10 mg/kg, po
# Format: ADME, organism-based
# Design: dose 10 mg/kg, route oral
# testContext: plasma
Reported AUC values are given for each entry in this list.
# unit: ng·h/mL | format: bare number

Please review the following examples before continuing.
• COc1cc(Cl)ccc1C[C@@H](C)C(=O)N1CCN(c2ccc(Cl)cc2[C@@H](NC(=O)C2CNC2)C(C)C)CC1 = 422
• CNCC(=O)N[C@H](c1cccc(F)c1N1CCN(C(=O)[C@H](C)Cc2ccc(Cl)cc2)CC1)C(C)C = 813
• CNCC(=O)N[C@H](c1cc(C)ccc1N1CCN(C(=O)[C@H](C)Cc2ccc(Cl)cc2F)CC1)C(C)C = 2290

Now let's try a different one.
If you can, please state the reported AUC value of CNCC(=O)N[C@H](c1cccc(F)c1N1CCN(C(=O)[C@H](C)Cc2ccc(Cl)cc2Cl)CC1)C(C)C .
1010

----------
# method: Drug level in LLC tumor bearing C57BL/6J mouse plasma at 20 mg/kg, po twice daily after 12 hrs on day 4 of administration
# Assay type: ADME, organism-based
# Set-up: dose 20 mg/kg, route oral
observable: concentration at 12 h (ng/mL)
# unit: ng/mL | format: bare number

If you can, please state the reported concentration at 12 h value of Cc1ccc(N2CCN(C(=O)[C@H](C)Cc3ccc(Cl)cc3)CC2)c([C@@H](NC(=O)CCN(C)C)C(C)C)c1 .
405

----------
Reported Kp at 4 h values are given for each entry in this list.
# method: Ratio of drug level in brain to plasma in mouse at 5 mg/kg, iv after 4 hrs
# Assay type: ADME, organism-based
# Design: dose 5 mg/kg, route intravenous

Please review the following examples before continuing.
- CNCC(=O)N[C@H](c1cccc(F)c1N1CCN(C(=O)[C@H](C)Cc2ccc(Cl)cc2Cl)CC1)C(C)C: 0.5
- CNCC(=O)N[C@H](c1cc(Cl)ccc1N1CCN(C(=O)[C@H](C)Cc2ccc(Cl)cc2)CC1)C(C)C: 1.5
- CNCC(=O)N[C@H](c1cccc(F)c1N1CCN(C(=O)[C@H](C)Cc2ccc(Cl)cc2)CC1)C(C)C: 1.1
- CC(C)[C@H](NC(=O)C1CN(C)C1)c1cc(Cl)ccc1N1CCN(C(=O)[C@H](C)Cc2ccc(Cl)cc2)CC1: 0.1
- CC(C)[C@H](NC(=O)CCN(C)C)c1cc(Cl)ccc1N1CCN(C(=O)[C@H](C)Cc2ccc(Cl)cc2)CC1: 2.3

Now let's try a different one.
If you can, please state the reported Kp at 4 h value of CNCC(=O)N[C@H](c1cccc(F)c1N1CCN(C(=O)[C@H](C)Cc2ccc(Cl)cc2OC)CC1)C(C)C .
1.7

----------
# Tested on: Caco-2
# method: Apparent permeability across human Caco-2 cells
# Assay type: ADME, cell-based
observable: Papp

- CC(C)[C@H](NC(=O)CCN(C)C)c1cccc(F)c1N1CCN(C(=O)[C@H](C)Cc2ccc(Cl)cc2)CC1: 10 ×10⁻⁶ cm/s
- Cc1ccc(N2CCN(C(=O)[C@H](C)Cc3ccc(Cl)cc3C)CC2)c([C@@H](NC(=O)CCN(C)C)C(C)C)c1: 16 ×10⁻⁶ cm/s
- Cc1ccc(N2CCN(C(=O)[C@H](C)Cc3ccc(Cl)cc3)CC2)c([C@@H](NC(=O)CCN(C)C)C(C)C)c1: 41 ×10⁻⁶ cm/s

Now let's try a different one.
# returns recorded Papp (system: Caco-2) for CNCCC(=O)N[C@H](c1cc(C)ccc1N1CCN(C(=O)[C@H](C)Cc2ccc(Cl)cc2)CC1)C(C)C
12 ×10⁻⁶ cm/s

----------
# method: Volume of distribution in mouse at 5 mg/kg, iv and 10 mg/kg, po
# Format: ADME, organism-based
# testContext: in vivo
observable: Vd (L/kg)
# unit: L/kg | format: bare number

* Cc1ccc(N2CCN(C(=O)[C@H](C)Cc3ccc(Cl)cc3)CC2)c([C@@H](NC(=O)CCN(C)C)C(C)C)c1 | 4.1

If you can, please state the reported Vd value of COc1cc(Cl)ccc1C[C@@H](C)C(=O)N1CCN(c2ccc(Cl)cc2[C@@H](NC(=O)C2CNC2)C(C)C)CC1 .
8.2

If you can, please state the reported Vd value of CNCC(=O)N[C@H](c1cc(C)ccc1N1CCN(C(=O)[C@H](C)Cc2ccc(Cl)cc2F)CC1)C(C)C .
3

If you can, please state the reported Vd value of CNCC(=O)N[C@H](c1cccc(F)c1N1CCN(C(=O)[C@H](C)Cc2ccc(Cl)cc2OC)CC1)C(C)C .
29

----------
Reported bioavailability values are given for each entry in this list.
# method: Oral bioavailability in mouse at 10 mg/kg
# Format: ADME, organism-based
# testContext: in vivo
# unit: % | format: bare number

* COc1cc(Cl)ccc1C[C@@H](C)C(=O)N1CCN(c2c(F)cccc2[C@@H](NC(=O)C2CNC2)C(C)C)CC1 | 5.6

If you can, please state the reported bioavailability value of COc1cc(Cl)ccc1C[C@@H](C)C(=O)N1CCN(c2ccc(Cl)cc2[C@@H](NC(=O)[C@@H](C)N)C(C)C)CC1 .
16

If you can, please state the reported bioavailability value of COc1cc(Cl)ccc1C[C@@H](C)C(=O)N1CCN(c2ccc(Cl)cc2[C@@H](NC(=O)C2CNC2)C(C)C)CC1 .
5.8

If you can, please state the reported bioavailability value of CNCC(=O)N[C@H](c1cc(Cl)ccc1N1CCN(C(=O)[C@H](C)Cc2ccc(Cl)cc2)CC1)C(C)C .
13

If you can, please state the reported bioavailability value of CNCC(=O)N[C@H](c1cccc(F)c1N1CCN(C(=O)[C@H](C)Cc2ccc(Cl)cc2)CC1)C(C)C .
21

If you can, please state the reported bioavailability value of CNCC(=O)N[C@H](c1cc(C)ccc1N1CCN(C(=O)[C@H](C)Cc2ccc(Cl)cc2F)CC1)C(C)C .
30

If you can, please state the reported bioavailability value of CNCC(=O)N[C@H](c1cc(Cl)ccc1N1CCN(C(=O)[C@H](C)Cc2ccc(Cl)cc2OC)CC1)C(C)C .
8

If you can, please state the reported bioavailability value of CNCC(=O)N[C@H](c1cccc(F)c1N1CCN(C(=O)[C@H](C)Cc2ccc(Cl)cc2Cl)CC1)C(C)C .
23

If you can, please state the reported bioavailability value of CNCCN[C@H](c1cccc(F)c1N1CCN(C(=O)[C@H](C)Cc2ccc(Cl)cc2)CC1)C(C)C .
47
